# test_details: Plasma concentration in rat at 30 mg/kg, po administered for 10 days measured 24 hrs post last dose
# Format: ADME, organism-based
# Design: dose 30 mg/kg, route oral
quantity_measured: concentration at 24 h

1) CCN(CC)c1ncc(N(C(C)C)S(C)(=O)=O)c(N[C@@H](Cc2ccc(OC(=O)N3CCCC3)cc2)C(=O)O)n1	13 µg/mL

---

# test_details: AUC (0 to infinity) in rat at 1 mg/kg, po
# Type: ADME, organism-based
# Parameters: time infinity, dose 1 mg/kg, route oral
# condition_notes: plasma
quantity_measured: AUC(0-inf) (ng·h/mL)

1) CCN(CC)c1ncc(N(C(C)C)S(C)(=O)=O)c(N[C@@H](Cc2ccc(OC(=O)N3CCCC3)cc2)C(=O)O)n1	5900

---

# test_details: Plasma concentration in rat at 300 mg/kg, po after 24 hrs
# Format: ADME, organism-based
# Parameters: dose 300 mg/kg, route oral
quantity_measured: concentration at 24 h (ng/mL)

1) CCN(CC)c1ncc(N(C(C)C)S(C)(=O)=O)c(N[C@@H](Cc2ccc(OC(=O)N3CCCC3)cc2)C(=O)O)n1	46200

---

# test_details: Cmax in rat at 3 mg/kg, po
# Type: ADME, organism-based
# Set-up: dose 3 mg/kg, route oral
# condition_notes: in vivo
quantity_measured: Cmax (ng/mL)

1. CCN(CC)c1ncc(N(C(C)C)S(C)(=O)=O)c(N[C@@H](Cc2ccc(OC(=O)N3CCCC3)cc2)C(=O)O)n1	1100

---

# test_details: Plasma concentration in rat at 300 mg/kg, po administered for 10 days measured 24 hrs post last dose
# Type: ADME, organism-based
# Design: dose 300 mg/kg, route oral
quantity_measured: concentration at 24 h

1) CCN(CC)c1ncc(N(C(C)C)S(C)(=O)=O)c(N[C@@H](Cc2ccc(OC(=O)N3CCCC3)cc2)C(=O)O)n1	43100 ng/mL

---

# test_details: Cmax in rat at 300 mg/kg, po
# Format: ADME, organism-based
# Set-up: dose 300 mg/kg, route oral
# condition_notes: in vivo
quantity_measured: Cmax (µg/mL)

1. CCN(CC)c1ncc(N(C(C)C)S(C)(=O)=O)c(N[C@@H](Cc2ccc(OC(=O)N3CCCC3)cc2)C(=O)O)n1	153

---

# test_details: Half life in iv dosed rat
# Assay type: ADME, organism-based
# condition_notes: in vivo
quantity_measured: half-life

1. CCN(CC)c1ncc(N(C(C)C)S(C)(=O)=O)c(N[C@@H](Cc2ccc(OC(=O)N3CCCC3)cc2)C(=O)O)n1	7.3 h

---

# test_details: Cmax in rat at 100 mg/kg, po
# Format: ADME, organism-based
# Design: dose 100 mg/kg, route oral
# condition_notes: in vivo
quantity_measured: Cmax (µg/mL)

1. CCN(CC)c1ncc(N(C(C)C)S(C)(=O)=O)c(N[C@@H](Cc2ccc(OC(=O)N3CCCC3)cc2)C(=O)O)n1	105

---

# test_details: AUC (0 to infinity) in rat at 30 mg/kg, po
# Format: ADME, organism-based
# Set-up: time infinity, dose 30 mg/kg, route oral
# condition_notes: plasma
quantity_measured: AUC(0-inf)

1. CCN(CC)c1ncc(N(C(C)C)S(C)(=O)=O)c(N[C@@H](Cc2ccc(OC(=O)N3CCCC3)cc2)C(=O)O)n1	275 µg·h/mL
